Ref: paper PMC2825117

molecular target: PHD2 (Homo sapiens, UniProt Q9GZT9); test: PHD2 biochemical activity assay; conditions: hydroxylation of CODD peptide substrate, MALDI-TOF MS
Sequence (Q9GZT9 whole entry): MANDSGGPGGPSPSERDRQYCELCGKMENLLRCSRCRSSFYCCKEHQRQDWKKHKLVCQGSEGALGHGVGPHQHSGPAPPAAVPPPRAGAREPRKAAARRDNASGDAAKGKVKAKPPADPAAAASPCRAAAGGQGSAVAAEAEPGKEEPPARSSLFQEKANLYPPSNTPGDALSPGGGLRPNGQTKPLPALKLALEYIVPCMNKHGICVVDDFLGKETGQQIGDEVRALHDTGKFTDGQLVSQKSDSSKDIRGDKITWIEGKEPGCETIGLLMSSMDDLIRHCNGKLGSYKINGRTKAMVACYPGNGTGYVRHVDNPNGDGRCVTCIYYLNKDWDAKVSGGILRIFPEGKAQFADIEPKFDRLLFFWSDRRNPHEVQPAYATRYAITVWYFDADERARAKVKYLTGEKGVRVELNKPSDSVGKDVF
Experimental Endpoint: inhibitory activity toward PHD2 (in words)

[
  {
    "Structure": "O=C(O)C(=O)N[C@H](Cc1ccc(OS(=O)(=O)c2ccc(Br)cc2)cc1)C(=O)O",
    "Result": "No inhibitory activity"
  },
  {
    "Structure": "CC(C)(C)c1ccc(S(=O)(=O)Oc2ccc(C[C@@H](NC(=O)C(=O)O)C(=O)O)cc2)cc1",
    "Result": "No inhibitory activity"
  },
  {
    "Structure": "O=C(O)C(=O)N[C@H](Cc1ccc(OS(=O)(=O)c2ccc(F)cc2)cc1)C(=O)O",
    "Result": "No inhibitory activity"
  }
]
